I'd be grateful if you could share measured MIC for these entries.
test: Antimicrobial activity against kanamycin-resistant Campylobacter fetus subsp. fetus CA76 harboring deletion in ant(6)-Ib::pCA76 in presence of 5% lacked horse blood; type: functional
Give bare numbers, in µg/mL.

Here is how some molecules turned out for MIC.
CN(C)c1ccc(O)c2c1C[C@H]1C[C@H]3[C@H](N(C)C)C(O)=C(C(N)=O)C(=O)[C@@]3(O)C(O)=C1C2=O [MINOCYCLINE] :: 16
C[C@H]1c2cccc(O)c2C(=O)C2=C(O)[C@]3(O)C(=O)C(C(N)=O)=C(O)[C@@H](N(C)C)[C@@H]3[C@@H](O)[C@@H]21.O [DOXYCYCLINE] :: 8

// switching to the query molecule
Briefly, MIC measured for CN(C)[C@@H]1C(O)=C(C(N)=O)C(=O)[C@@]2(O)C(O)=C3C(=O)c4c(O)cccc4[C@@](C)(O)[C@H]3C[C@@H]12 [TETRACYCLINE] : 16

----------
test: Antimicrobial activity against ciprofloxacin-resistant Campylobacter fetus subsp. fetus 1516477 human isolate lacking tet(44) and ant(6)-Ib resistance genes in presence of 5% lacked horse blood
readout.kind: MIC

CN(C)[C@@H]1C(O)=C(C(N)=O)C(=O)[C@@]2(O)C(O)=C3C(=O)c4c(O)cccc4[C@@](C)(O)[C@H]3C[C@@H]12 :: 1 mg/L
CN(C)c1ccc(O)c2c1C[C@H]1C[C@H]3[C@H](N(C)C)C(O)=C(C(N)=O)C(=O)[C@@]3(O)C(O)=C1C2=O :: 1 mg/L
CN[C@@H]1[C@H](O[C@H]2[C@H](O[C@H]3[C@H](O)[C@@H](O)[C@H](N=C(N)N)[C@@H](O)[C@@H]3N=C(N)N)O[C@@H](C)[C@]2(O)C=O)O[C@@H](CO)[C@H](O)[C@H]1O :: ≤ 1 mg/L

// switching to the query molecule
Briefly, MIC measured for `C[C@H]1c2cccc(O)c2C(=O)C2=C(O)[C@]3(O)C(=O)C(C(N)=O)=C(O)[C@@H](N(C)C)[C@@H]3[C@@H](O)[C@@H]21.O` : 0.5 mg/L

----------
assay: Antimicrobial activity against nalidixic acid-resistant Campylobacter fetus subsp. fetus IMD523-06 bovine isolate harboring tet(44) and ant(6)-Ib resistance gene in presence of 5% lacked horse blood; format: functional
readout.kind: MIC

Here is how some molecules turned out for MIC.
C[C@H]1c2cccc(O)c2C(=O)C2=C(O)[C@]3(O)C(=O)C(C(N)=O)=C(O)[C@@H](N(C)C)[C@@H]3[C@@H](O)[C@@H]21.O :: 8 µg/mL
CN(C)[C@@H]1C(O)=C(C(N)=O)C(=O)[C@@]2(O)C(O)=C3C(=O)c4c(O)cccc4[C@@](C)(O)[C@H]3C[C@@H]12 :: 16 µg/mL
CN[C@@H]1[C@H](O[C@H]2[C@H](O[C@H]3[C@H](O)[C@@H](O)[C@H](N=C(N)N)[C@@H](O)[C@@H]3N=C(N)N)O[C@@H](C)[C@]2(O)C=O)O[C@@H](CO)[C@H](O)[C@H]1O :: > 64 µg/mL

Briefly, MIC measured for `CN(C)c1ccc(O)c2c1C[C@H]1C[C@H]3[C@H](N(C)C)C(O)=C(C(N)=O)C(=O)[C@@]3(O)C(O)=C1C2=O` : 16 µg/mL

----------
assay: Antimicrobial activity against Campylobacter fetus subsp. fetus CA80 harboring ciprofloxacin-resistant gene and IMD523-06 pathogenicity island with tet(44) and ant(6)-Ib resistant marker gene in presence of 5% lacked horse blood; type: functional
readout.kind: MIC (mg/L)
Give bare numbers, in mg/L.

CN(C)[C@@H]1C(O)=C(C(N)=O)C(=O)[C@@]2(O)C(O)=C3C(=O)c4c(O)cccc4[C@@](C)(O)[C@H]3C[C@@H]12 :: 16

I'm hoping you can list MIC for every compound here, please.
1. CN(C)c1ccc(O)c2c1C[C@H]1C[C@H]3[C@H](N(C)C)C(O)=C(C(N)=O)C(=O)[C@@]3(O)C(O)=C1C2=O
2. CN[C@@H]1[C@H](O[C@H]2[C@H](O[C@H]3[C@H](O)[C@@H](O)[C@H](N=C(N)N)[C@@H](O)[C@@H]3N=C(N)N)O[C@@H](C)[C@]2(O)C=O)O[C@@H](CO)[C@H](O)[C@H]1O

Data returned:
16
64

Briefly, MIC measured for `C[C@H]1c2cccc(O)c2C(=O)C2=C(O)[C@]3(O)C(=O)C(C(N)=O)=C(O)[C@@H](N(C)C)[C@@H]3[C@@H](O)[C@@H]21.O` : 4
